# Tested on: cellular production of amyloid β peptide (Aβ40) in 7PA2 CHO cells
# protocol_summary: Cell amyloid-beta production assay (MSD electrochemiluminescence immunoassay)
# Type: cell-based
# protocol_conditions: 12 hours incubation, read-out: Cell Abeta40 IC50
readout: IC50 (nM)
Reply numerically in nM, unit not repeated.

Request the reported IC50 associated with `CC#Cc1ccc2sc3cc(F)c([C@]4(C)CS(=O)(=O)C(C)(C)C(=N)N4)cc3c2c1`
5

====

Consider the following compounds; for each one, report its pIC50.
# tested_target: recombinant BACE2 (Homo sapiens (Human), UniProt Q9Y5Z0)
# Sequence (Q9Y5Z0 63-518): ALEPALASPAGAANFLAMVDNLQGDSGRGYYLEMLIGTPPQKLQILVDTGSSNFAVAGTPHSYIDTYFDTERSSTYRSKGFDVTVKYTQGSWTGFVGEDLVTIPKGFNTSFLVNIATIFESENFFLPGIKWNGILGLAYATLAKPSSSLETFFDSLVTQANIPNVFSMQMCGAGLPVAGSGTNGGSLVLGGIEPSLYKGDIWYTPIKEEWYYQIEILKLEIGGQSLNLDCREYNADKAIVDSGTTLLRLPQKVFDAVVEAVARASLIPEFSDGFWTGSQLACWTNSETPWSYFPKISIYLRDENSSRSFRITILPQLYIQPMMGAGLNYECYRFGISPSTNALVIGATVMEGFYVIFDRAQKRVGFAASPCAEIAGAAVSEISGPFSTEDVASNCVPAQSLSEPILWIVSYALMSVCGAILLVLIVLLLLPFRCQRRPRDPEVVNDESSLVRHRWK
# protocol_summary: AnaSpec BACE2 fluorescent assay
Scale explanation: pIC50 corresponds to minus log10 of a concentration expressed in moles per litre.

Report pIC50 for CC#Cc1ccc2sc3ccc([C@]4(C)CS(=O)(=O)C(C)(C)C(N)=N4)cc3c2c1 [Example 103] tested on recombinant BACE2 (Homo sapiens (Human), UniProt Q9Y5Z0).
7.92

Report pIC50 for CC#Cc1ccc2[nH]c([C@]3(C)CC(=O)N(C)C(=N)N3)c(Cl)c2c1 [Example 38] tested on recombinant BACE2 (Homo sapiens (Human), UniProt Q9Y5Z0).
7.62

Report pIC50 for CC#Cc1ccc2sc3cc(Cl)c([C@]4(C)CC(=O)N(C)C(N)=N4)cc3c2c1 [Example 71] tested on recombinant BACE2 (Homo sapiens (Human), UniProt Q9Y5Z0).
7.62

Report pIC50 for CC#Cc1ccc2sc3cc(F)c([C@]4(C)CS(=O)(=O)C(C)(C)C(=N)N4)cc3c2c1 [Example 109] tested on recombinant BACE2 (Homo sapiens (Human), UniProt Q9Y5Z0).
7.80

====

# tested_target: BACE1 (recombinant β-secretase enzyme) (Homo sapiens (Human), UniProt P56817)
# Sequence (P56817 46-501): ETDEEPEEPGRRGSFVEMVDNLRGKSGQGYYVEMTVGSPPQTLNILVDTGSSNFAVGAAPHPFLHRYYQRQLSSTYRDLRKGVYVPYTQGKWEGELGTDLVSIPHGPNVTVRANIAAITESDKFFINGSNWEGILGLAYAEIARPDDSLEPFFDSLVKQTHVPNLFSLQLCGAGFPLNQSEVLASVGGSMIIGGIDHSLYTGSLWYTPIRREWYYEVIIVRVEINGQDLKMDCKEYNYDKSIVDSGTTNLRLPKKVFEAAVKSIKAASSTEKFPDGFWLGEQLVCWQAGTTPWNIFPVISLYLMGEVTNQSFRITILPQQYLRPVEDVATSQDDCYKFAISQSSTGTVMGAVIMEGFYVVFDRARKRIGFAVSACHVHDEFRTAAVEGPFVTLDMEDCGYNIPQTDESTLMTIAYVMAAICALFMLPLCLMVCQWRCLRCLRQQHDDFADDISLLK
# protocol_summary: AnaSpec BACE1 fluorescent assay (beta-secretase activity assay)
Consider the following compounds; for each one, report its IC50.
Reply numerically in nM, unit not repeated.

Request the reported IC50 associated with CN1C(=N)N[C@](C)(c2ccc3sc4ccc(C#CCO)cc4c3c2)CC1=O [Example 87]
17

Request the reported IC50 associated with CC#Cc1ccc2sc3cc(F)c([C@]4(C)CC(=O)N(C)C(=N)N4)cc3c2c1 [Example 72]
21

Request the reported IC50 associated with CC#Cc1ccc2c(c1)-c1cc([C@]3(C)CC(=O)N(C)C(=N)N3)ccc1S2(=O)=O [Example 79]
87

Request the reported IC50 associated with CC#Cc1ccc2sc3cc(F)c([C@]4(C)CS(=O)(=O)C(C)(C)C(=N)N4)cc3c2c1 [Example 109]
25

Request the reported IC50 associated with COCC#Cc1ccc2sc3ccc([C@]4(C)CC(=O)N(C)C(=N)N4)cc3c2c1 [Example 86]
218

Request the reported IC50 associated with CC#Cc1ccc2sc3cc(Cl)c([C@]4(C)CC(=O)N(C)C(N)=N4)cc3c2c1 [Example 71]
44

Request the reported IC50 associated with CN1C(=N)N[C@](C)(c2ccc3sc4ccc(C5CC5)cc4c3c2)CC1=O [Example 90]
78

Request the reported IC50 associated with CC#Cc1ccc2sc3ccc([C@@]4(C)NC(=N)OCC4(F)F)cc3c2c1 [Example 100]
202

Request the reported IC50 associated with CN1C(=N)N[C@](C)(c2ccc3sc4ccc(C(F)(F)F)cc4c3c2)CC1=O [Example 94]
81

Request the reported IC50 associated with CC#Cc1ccc2sc3ccc([C@]4(C)CS(=O)(=O)C(C)(C)C(N)=N4)cc3c2c1 [Example 103]
39

Request the reported IC50 associated with CC#Cc1ccc2[nH]c([C@]3(C)CC(=O)N(C)C(=N)N3)c(Cl)c2c1 [Example 38]
44

Request the reported IC50 associated with CC#Cc1ccc2c(c1)c1cc([C@]3(C)CC(=O)N(C)C(=N)N3)ccc1[s+]2[O-] (stereo partly shown) [Example 80]
48

Request the reported IC50 associated with CC#Cc1ccc2sc3ccc([C@]4(C)CC(=O)N(C)C(=N)N4)cc3c2c1 [Example 1]
26

====

# tested_target: Human recombinant cathepsin D (Homo sapiens (Human))
# Sequence (P07339 65-412): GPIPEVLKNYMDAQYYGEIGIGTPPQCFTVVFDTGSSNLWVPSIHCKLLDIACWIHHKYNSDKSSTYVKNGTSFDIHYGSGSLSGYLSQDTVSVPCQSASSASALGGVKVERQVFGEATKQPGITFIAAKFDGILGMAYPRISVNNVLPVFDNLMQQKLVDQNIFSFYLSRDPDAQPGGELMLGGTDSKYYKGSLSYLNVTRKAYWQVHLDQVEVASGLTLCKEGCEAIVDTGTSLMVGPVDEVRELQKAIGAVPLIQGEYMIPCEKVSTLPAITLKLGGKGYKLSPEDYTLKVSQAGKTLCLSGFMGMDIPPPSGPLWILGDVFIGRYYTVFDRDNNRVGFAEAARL
# protocol_summary: Cathepsin D activity assay
# protocol_conditions: read-out: CatD IC50
readout: pIC50
Scale explanation: pIC50 corresponds to minus log10 of a concentration expressed in moles per litre.

Report pIC50 for `CC#Cc1ccc2sc3ccc([C@]4(C)CC(=O)N(C)C(=N)N4)cc3c2c1` tested on Human recombinant cathepsin D (Homo sapiens (Human)).
4.91

Report pIC50 for `CC#Cc1ccc2sc3cc(F)c([C@]4(C)CS(=O)(=O)C(C)(C)C(=N)N4)cc3c2c1` tested on Human recombinant cathepsin D (Homo sapiens (Human)).
4.97

Report pIC50 for `CC#Cc1ccc2sc3ccc([C@]4(C)CS(=O)(=O)C(C)(C)C(N)=N4)cc3c2c1` tested on Human recombinant cathepsin D (Homo sapiens (Human)).
4.76

Report pIC50 for `CC#Cc1ccc2sc3cc(Cl)c([C@]4(C)CC(=O)N(C)C(N)=N4)cc3c2c1` tested on Human recombinant cathepsin D (Homo sapiens (Human)).
5.41

====

Consider the following molecules; for each one, report its pIC50.
# tested_target: BACE1 (recombinant β-secretase enzyme) (Homo sapiens (Human))
# protocol_summary: AnaSpec BACE1 fluorescent assay (beta-secretase activity assay)
pIC50: −log10 of the molar value.

Request the reported pIC50 associated with `CC#Cc1ccc2sc3ccc([C@]4(C)CC(=O)N(CCOC)C(=N)N4)cc3c2c1`
< 6.52

Request the reported pIC50 associated with `CCCc1ccc2sc3ccc([C@]4(C)CC(=O)N(C)C(=N)N4)cc3c2c1`
< 6.52

Request the reported pIC50 associated with `CC#Cc1ccc2sc3ccc([C@]4(C5CC5)CC(=O)N(C)C(=N)N4)cc3c2c1`
< 6.52

Request the reported pIC50 associated with `CCN(CC)c1ccc2sc3ccc([C@]4(C)CC(=O)N(C)C(=N)N4)cc3c2c1`
< 6.52

Request the reported pIC50 associated with `CC#Cc1ccc2sc3ccc([C@]4(C)CC(=O)N(CC(F)F)C(=N)N4)cc3c2c1`
< 6.52

Request the reported pIC50 associated with `CC#Cc1ccc2c(c1)-c1cc([C@]3(C)CC(=O)N(C)C(=N)N3)ccc1C2(C)C`
< 6.52

Request the reported pIC50 associated with `CC#Cc1ccc2c(c1)-c1cc([C@]3(C)CC(=O)N(C)C(=N)N3)ccc1C2(F)F`
< 6.52

Request the reported pIC50 associated with `CN1C(=N)N[C@](C)(c2ccc3sc4ccc(C#N)cc4c3c2)CC1=O`
< 6.52

Request the reported pIC50 associated with `CC#Cc1ccc2sc3ccc([C@]4(C)CN(C)C(=O)C(=N)N4)cc3c2c1`
< 6.52

Request the reported pIC50 associated with `CN1C(=N)N[C@](C)(c2ccc3sc4ccc(C(N)=O)cc4c3c2)CC1=O`
< 6.52

Request the reported pIC50 associated with `CN1C(=N)N[C@](C)(c2ccc3sc4ccc(Br)cc4c3c2)CC1=O`
< 6.52

Request the reported pIC50 associated with `CC#Cc1ccc2sc3ccc([C@]4(C)CS(=O)(=O)N(C)C(=N)N4)cc3c2c1`
< 6.52
